test system: LOX IMVI melanoma; assay: NCI tumour cell line growth inhibition, 48 h
What TGI was measured for each of the following?
Answer with a number only, understood to be in µM.

## Task Can you look up the measured TGI of "COc1cc2c(cc1-c1c(C)noc1C)ncc1[nH]c(=O)n([C@H](C)c3ccccn3)c12" for me?
## Result 20.3

## Task Please do the same for "CSc1ccc(C(=O)/C=C/c2ccc(F)cc2)cc1" as well.
## Result 83.4

====

tested on: SN12C renal; assay: NCI tumour cell line growth inhibition, 48 h; in the data active means GI50 below about 0.43 µM; inactive means the rest
Your reply should match one of these outcome classes. active, inactive

## Task Field: outcome | Entry: "CCCCc1oc2ccccc2c1C(=O)c1cc(I)c(OCCN(CC)CC)c(I)c1"
## Result inactive

## Task Please do the same for "c1ccc([P+](CCC[P+](c2ccccc2)(c2ccccc2)c2ccccc2)(c2ccccc2)c2ccccc2)cc1" as well.
## Result inactive

## Task Please do the same for "NCCCn1c2c(c3ccc([N+](=O)[O-])cc3c1=O)C(=O)c1cc(Cl)ccc1-2" as well.
## Result active

## Task Please do the same for "COc1cc(/C=N/O)nc(-c2ccccn2)c1" as well.
## Result inactive

## Task Please do the same for "c1cc(-c2cnn3nc(N4CCOCC4)ccc23)nc(NC2CC2)n1" as well.
## Result inactive

## Task Please do the same for C#CCOc1cccc(Nc2ncnc3c2ncn3C2CCN(C(=O)CCl)C2)c1 (stereo not given) as well.
## Result inactive

## Task Please do the same for "CN(C)CCC(=O)NCc1c2nc3ccccc3nc2n2ccccc12" as well.
## Result inactive

## Task Please do the same for "COc1cc(C(=O)/C=C/c2c(-c3cccs3)nc3ccccn23)cc(OC)c1OC" as well.
## Result inactive

## Task Please do the same for COc1ccc2nc(C3=CN(C4OC(CO)C(O)C(O)C4O)C4C=CC=CC34)sc2c1 (stereo not given) as well.
## Result inactive

## Task Please do the same for Cc1ccc2oc(=O)cc(C3c4ccc([nH]4)C(c4cc(=O)oc5ccc(C)cc45)c4ccc([nH]4)C(c4cc(=O)oc5ccc(C)cc45)c4ccc([nH]4)C(c4cc(=O)oc5ccc(C)cc45)c4ccc3[nH]4)c2c1 (stereo not given) as well.
## Result active

====

test system: K-562 leukemia; assay: NCI tumour cell line growth inhibition, 48 h
measured.parameter: TGI

## Task Hello, I am looking for reported TGI with K-562 leukemia for "C[N+](C)(N)Cc1csc(-c2ccc(Cl)cc2)n1" . Could you help?
## Result > 100 µM

## Task Please do the same for "CCOC(CN(C)C(=O)OCC(Cl)(Cl)Cl)OCC" as well.
## Result > 100 µM

## Task Please do the same for "C/C(CC(=O)Nc1ccc(NC(=O)/C(C)=N/NS(=O)(=O)c2ccc(C)cc2)cc1)=N\NS(=O)(=O)c1ccc(C)cc1" as well.
## Result > 100 µM

## Task Please do the same for "COc1ccc2c(c1)-c1c(c3ccccc3n1CCN1CCOCC1)CC2" as well.
## Result 54.5 µM

====

test system: PC-3 prostate; experiment: NCI tumour cell line growth inhibition, 48 h
What TGI was measured for each of the following?

## Task Can you look up the measured TGI of Cc1ccc(N2C(=O)C(O)=C(C(=O)C(C)(C)C)C2c2ccc([N+](=O)[O-])cc2)cc1 (stereo not drawn) for me?
## Result > 100 µM

## Task Please do the same for "CCOC(=S)SC/C(=N\OC(C)(C)OC)c1ccccc1" as well.
## Result > 100 µM

## Task Please do the same for "CCOC(CN(C)C(=O)OCC(Cl)(Cl)Cl)OCC" as well.
## Result > 100 µM

## Task Please do the same for "COc1ccc(NCc2c(O)ccc3ccccc23)cc1" as well.
## Result 49.9 µM

## Task Please do the same for "O=C1c2c(O)cccc2C(C(=O)CCCC(=O)C2c3cccc(O)c3C(=O)c3c(O)cccc32)c2cccc(O)c21" as well.
## Result 0.467 µM

## Task Please do the same for "Cc1cccc2cc3ccc4ccccc4c3cc12" as well.
## Result > 100 µM

## Task Please do the same for "O=C1/C(=C/c2ccc(C(F)(F)F)cc2)COc2ccc(O)cc21" as well.
## Result 4.17 µM

## Task Please do the same for "CCC(=O)n1c(=O)n(-c2ccc([N+](=O)[O-])cc2)c(=O)n1C(=O)CC" as well.
## Result > 100 µM

## Task Please do the same for "COc1ccc(Cn2cc3c(c2-c2ccccc2)CCc2cncnc2-3)cc1" as well.
## Result 31.1 µM

## Task Please do the same for "OCCCCC#Cc1ccccc1C#Cc1cccs1" as well.
## Result 30.8 µM

## Task Please do the same for C=C(C)C1CCC2(CO)C(O)CC3(C)C(CCC4C5(C)CCC(O)C(C)(C)C5CCC43C)C12 (stereo not drawn) as well.
## Result 60.3 µM

## Task Please do the same for "C/C=C/COc1cc(NC(=S)c2ccoc2C)ccc1OC" as well.
## Result > 100 µM

## Task Please do the same for "CCCCc1oc2ccccc2c1C(=O)c1cc(I)c(OCCN(CC)CC)c(I)c1" as well.
## Result 8.91 µM
